Source: the supplement of paper PMC9262897

Test system: E. coli TESEC Mtb DapB
methodNotes: growth (OD600 after 10 h); higher = more growth (less inhibition)
assayConditions: arabinose induction (level): Low; compound 0.1 mM; raw OD600 reference: median of DMSO wells 0.227, cell-free background 0.041
Structures can show the parent of a compound that is named as a salt.
Please enter label 1 where growth is greater than or equal to 0.2, and label 0 where it is lower.

>>> print(df.to_string())
                                   molecule  classassignment
0  Cc1ccc(S(=O)(=O)NC(=O)NN2CCCCCC2)cc1 [Tolazamide]          label 1
1  C[C@]12CCC(=O)C=C1C=C[C@@H]1[C@@H]2CC[C@@]2(C)[C@H]1CC[C@@]21CCC(=O)O1 [Canrenone]          label 0
2  C[C@@H](O)[C@H]1C(=O)N2C(C(=O)O)=C(SCCNC=N)C[C@H]12 [Imipenem]          label 1
3  CN(C)CCC=C1c2ccccc2COc2ccccc21 [Doxepin hydrochloride]          label 0
